Reported Kochia plant response rating is given for each of the following compounds.
- Tested on: kochia (Kochia scoparia)
- MEASUREMENT NOTES: Test A greenhouse herbicide test, pre- and postemergence
- Type: in vivo
- TEST SETTINGS: Preemergence, 125 g ai/ha; 0 to 100 scale where 0 is no effect and 100 is complete control
Just the number, please, no unit attached.

## Task Quick one: Kochia plant response rating for `COC(=O)Oc1c(C)nn(C)c(=O)c1-c1c(C(F)(F)F)ccc2ccccc12` ?
## Result 40

## Task // query Kochia plant response rating value for entry `Cc1nn(C)c(=O)c(-c2ccc(F)c3ccccc23)c1O`
## Result 90

## Task Any idea what its Kochia plant response rating is? The compound is `Cc1cc2ccccc2c(-c2c(O)c(C)nn(C)c2=O)c1C`
## Result 30

## Task Recorded Kochia plant response rating for `CCC(=O)Oc1c(C)nn(C)c(=O)c1-c1ccc(F)c2ccccc12` , please?
## Result 90

## Task So what does the record say about Kochia plant response rating for `CCC(=O)Oc1c(C)nn(C)c(=O)c1-c1ccc(Br)c2ccccc12` ?
## Result 70

## Task Which Kochia plant response rating value belongs to `CCOc1ccc2oc(CC)c(-c3c(O)c(C)nn(C)c3=O)c2c1` ?
## Result 0

## Task Fill in the blank: the reported Kochia plant response rating of `COC(=O)Oc1c(C)nn(C)c(=O)c1-c1c(C)sc2ccc(C)cc12` is ____.
## Result 90

====

- Tested on: foxtail, giant (giant foxtail, Setaria faberii)
- MEASUREMENT NOTES: Test A greenhouse herbicide test, pre- and postemergence
- Assay type: in vivo
- TEST SETTINGS: Preemergence, 500 g ai/ha; 0 to 100 scale where 0 is no effect and 100 is complete control
Plant response rating, Foxtail, Giant values for the compounds below.
The response must contain the number and no unit.

The examples below pair each entry with its known result.
## Task Look up Plant response rating, Foxtail, Giant for this compound: Cc1nn(C)c(=O)c(-c2c(Cl)n(C)c3ccccc23)c1O [Compound 95]
## Result 0

## Task Dear colleague, I am looking for the recorded Plant response rating, Foxtail, Giant of the following compound: Cc1sc2ccc(C(F)(F)F)cc2c1-c1c(O)c(Cl)nn(C)c1=O [Compound 140]
## Result 80

## Task Plant response rating, Foxtail, Giant lookup needed for Cc1nn(C)c(=O)c(-c2cccc3ccc(Br)cc23)c1O [Compound 126] , thanks.
## Result 70

## Task Could you share which Plant response rating, Foxtail, Giant value was measured for CCC(=O)Oc1c(C)nn(C)c(=O)c1-c1ccc(F)c2ccccc12 [Compound 113] ?
## Result 100

# ---- query compound ----
## Task Suppose we examine the compound Cc1n[nH]c(=O)c(-c2cccc3ccccc23)c1OCC(F)F [Compound 173] ; what Plant response rating, Foxtail, Giant value has been reported?
## Result 0

====

- System: wheat, winter (winter wheat, Triticum aestivum)
- MEASUREMENT NOTES: Test D controlled growth environment herbicide test, pre- and postemergence
- Format: in vivo
- TEST SETTINGS: Postemergence, 250 g ai/ha; scale 0 to 100 (0 no effect, 100 complete control)
API: label(entry) gives yes (1) if the entry's Plant response rating, Wheat, Winter is strictly smaller than 20; on equality or larger values it gives no (0).

## Task Is it true that Plant response rating, Wheat, Winter reported for `Cc1nn(C)c(=O)c(-c2cccc3ccccc23)c1O` is less than 20?
## Result no (0)

## Task # TODO verify Plant response rating, Wheat, Winter < 20 strictly for this compound: `Cc1cc2ccccc2c(-c2c(O)c(C)nn(C)c2=O)c1C`
## Result no (0)

## Task Below 20 on Plant response rating, Wheat, Winter? Entry `COC(=O)Oc1c(C)nn(C)c(=O)c1-c1c(C)sc2ccc(C)cc12`
## Result yes (1)

## Task Hello, I'm reviewing records and need to know if Plant response rating, Wheat, Winter of `CCc1sc2ccc(C)cc2c1-c1c(O)c(C)nn(C)c1=O` is below 20. Could you check?
## Result yes (1)

## Task Dear colleague, could you confirm whether Plant response rating, Wheat, Winter of `Cc1ccc2sc(Br)c(-c3c(O)c(C)nn(C)c3=O)c2c1` falls below 20? Thanks.
## Result yes (1)

Further cases:
## Task Please indicate whether the reported Plant response rating, Wheat, Winter of `Cc1cc(C)c2ccccc2c1-c1c(O)c(C)nn(C)c1=O` is strictly below 20.
## Result no (0)

## Task Input `Cc1ccc2ccccc2c1-c1c(O)c(Br)nn(C)c1=O` ; condition: Plant response rating, Wheat, Winter strictly below 20. Does it hold?
## Result no (0)

====

Measured Nutsedge, Yellow plant response rating, listed per entry for reference.
- Tested on: nutsedge, yellow (yellow nutsedge, Cyperus esculentus)
- MEASUREMENT NOTES: Test C greenhouse herbicide test, pre- and postemergence
- Type: in vivo
- TEST SETTINGS: Postemergence, 62 g ai/ha; 0 to 100 scale (0 no effect, 100 complete control)

## Task Find the measured Nutsedge, Yellow plant response rating: item `COC(=O)Oc1c(OC)nn(C)c(=O)c1-c1c(C)ccc2ccccc12` , target or system nutsedge, yellow (yellow nutsedge, Cyperus esculentus).
## Result 55

## Task Under nutsedge, yellow (yellow nutsedge, Cyperus esculentus): Nutsedge, Yellow plant response rating value of `COC(=O)Oc1c(C)nn(C)c(=O)c1-c1ccc(Br)c2ccccc12` ?
## Result 90

## Task Form field: Nutsedge, Yellow plant response rating recorded for `CCC(=O)Oc1c(C)nn(C)c(=O)c1-c1ccc(Br)c2ccccc12` with nutsedge, yellow (yellow nutsedge, Cyperus esculentus) (enter value)
## Result 80

With those in mind, consider the next compound.
## Task # query: Nutsedge, Yellow plant response rating | item `Cc1nn(C)c(=O)c(-c2c([N+](=O)[O-])ccc3ccccc23)c1O` | system: nutsedge, yellow (yellow nutsedge, Cyperus esculentus)
## Result 30

====

- System: pigweed (Amaranthus retroflexus)
- MEASUREMENT NOTES: Test A greenhouse herbicide test, pre- and postemergence
- Type: in vivo
- TEST SETTINGS: Preemergence, 125 g ai/ha; 0 to 100 scale where 0 is no effect and 100 is complete control
MEASURED QUANTITY: Pigweed plant response rating
Output spec: single numeric token, no unit.

Illustrative cases are given below, each with its answer.
## Task Reported Pigweed plant response rating, compound `Cn1ncc(O)c(-c2ccc(F)c3ccccc23)c1=O` : ____
## Result 70

## Task Could you tell me which Pigweed plant response rating is on file for `Cc1ccc2ccccc2c1-c1c(OC(=O)C(C)(C)C)c(C#N)nn(C)c1=O` ?
## Result 90

## Task Give its Pigweed plant response rating value. Item: `Cc1nn(C)c(=O)c(-c2ccc(Cl)c3ccccc23)c1O`
## Result 100

Others:
## Task Fill in: Pigweed plant response rating of `Cc1ccc2ccccc2c1-c1c(OS(C)(=O)=O)cnn(C)c1=O` is ___
## Result 60

## Task If you can, please state the reported Pigweed plant response rating value of `COc1nn(C)c(=O)c(-c2c(C(F)F)ccc3ccccc23)c1O` .
## Result 80

## Task Form field: reported Pigweed plant response rating of `Cc1ccc2c(c1)c(-c1c(O)c(C)nn(C)c1=O)c(C)n2C`
## Result 0

## Task Requested field: Pigweed plant response rating. Item: `Cc1nn(C)c(=O)c(-c2ccc(Br)c3ccccc23)c1O`
## Result 100

## Task Which Pigweed plant response rating value is on record for `COC(=O)Oc1c(C)nn(C)c(=O)c1-c1ccc(Br)c2ccccc12` ?
## Result 90

## Task Query: Pigweed plant response rating; subject: `CC(=O)Oc1c(C)nn(C)c(=O)c1-c1c(C)sc2ccc(C(F)(F)F)cc12`
## Result 90

====

- Tested on: field bindweed (Convolvulus arvensis)
- MEASUREMENT NOTES: Test E greenhouse herbicide test, pre- and postemergence
- Type: in vivo
- TEST SETTINGS: 62 g ai/ha, Preemergence; scale 0 to 100 (0 no effect, 100 complete control)
Overview of reported Plant response rating, Field Bindweed across a group of compounds:

Field: example entries. Status: answers known.
## Task Requested field: Plant response rating, Field Bindweed. Item: `Cc1ccc2sc(C)c(-c3c(OC(=O)OC(C)C)c(C)nn(C)c3=O)c2c1`
## Result 50

## Task Suppose we examine the compound `COC(=O)Oc1c(C)nn(C)c(=O)c1-c1c(C)sc2ccc(C)cc12` ; what Plant response rating, Field Bindweed value has been reported?
## Result 70

## Task Request the reported Plant response rating, Field Bindweed associated with `Cc1cc(C)c2ccccc2c1-c1c(O)c(C)nn(C)c1=O`
## Result 95

// next item, Plant response rating, Field Bindweed requested
## Task // Plant response rating, Field Bindweed lookup, key: `Cc1ccc2sc(Br)c(-c3c(O)c(C)nn(C)c3=O)c2c1`
## Result 90

====

- System: pigweed (Amaranthus retroflexus)
- MEASUREMENT NOTES: Test C greenhouse herbicide test, pre- and postemergence
- Type: in vivo
- TEST SETTINGS: Postemergence, 125 g ai/ha; scale 0 to 100, 0 is no effect, 100 is complete control
The entries below come with measured Plant response rating, Pigweed values attached.
Number only, no unit.

Solved cases below.
## Task Requested read-out Plant response rating, Pigweed, target or system pigweed (Amaranthus retroflexus), entry Cc1cc(C)c2sc(C)c(-c3c(O)c(C)nn(C)c3=O)c2c1 [Compound 2]
## Result 90

## Task Item: Cc1cc2ccccc2c(-c2c(O)c(C)nn(C)c2=O)c1C [Compound 34] Test system: pigweed (Amaranthus retroflexus) Read-out: Plant response rating, Pigweed Value: ?
## Result 80

Here is another compound to look at.
## Task Field: Plant response rating, Pigweed (pigweed (Amaranthus retroflexus)). Entry: Cc1ccc2sc(Br)c(-c3c(O)c(C)nn(C)c3=O)c2c1 [Compound 79]
## Result 98
